- PROTOCOL NOTES: protein stability index of a GFP-peptide fusion (GPS, HEK-293T) (PSI 1-6); higher = more stable;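 also: 24-mer peptide tiles fused after GFP, lentivirally expressed, FACS-sorted into six equal bins by GFP/DsRed ratio, decoded by Illumina sequencing, PSI is the read-weighted mean bin number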
- CONDITION DETAILS: treatment: DMSO; c terminus: native

SEQUENCE RECORD | protein stability index
IKPPCIPNGKENFSGGTSLWQNI [CAMK2D] | 3.2
CGTKYPVEWAKFCCECGIRRMIL [ZC2HC1A] | 3.11
IQWKNHDQNNHNTDRSSHKDSMN [EDNRA] | 5.36
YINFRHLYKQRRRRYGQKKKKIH [HACD3] | 2.12

###

- PROTOCOL NOTES: protein stability index of a GFP-peptide fusion (GPS, HEK-293T) (PSI 1-6); higher = more stable
- CONDITION DETAILS: treatment: DMSO; c terminus: native
The entries below come with measured protein stability index values attached.

SEQUENCE RECORD | protein stability index
RAKVQPQARKKEMEMRQLQRGPA [CPN1] | 3.26
AALHMVIVAAFTWAFTLFFEVSE [KMT2E] | 2.48
LLRMCSHGEGKINYYNFVRAFSN [EFHC1] | 2.32
SFQPECSMKLTPLVLEVFGNEIS [VDR] | 2.23
LRSFEGLMGTIKSKVSGGKRAWP [TPD52L3] | 2.94
DILPIHPPSGNSDLDPDAQNPML [BTBD10] | 5.46
SKPKNSVWKRLKSPFRKKKDSVT [RIT1] | 3.55
SPVNMVTVAMVAGQCEFAHILHS [ZNF649] | 2.08
GDASECPQATNAKDSGCSSPGAH [PPEF2] | 5.78
AVQRFCLIGSLSKHESEYNTTRV [NETO1] | 2.85
AGHCSASPGPAAPTARMPGRLRG | 3
ARIQQSRRQCHAEEDQSQVPEAG [SMIM2] | 3.25
VQFVFDAVTDVIIKNNLKDCGLF [GNAI1] | 2.68
